System: A498
assay_protocol: NCI tumour cell line growth inhibition, 48 h
Calls of active or inactive are those of the source. No stated cut-off is given here; in the data, active = GI50 up to about 1.1 µM and inactive = higher.
outcome_measure: GI50

The examples below pair each entry with its known result.
[[record]]
compound = "COC(=O)C1(O)c2ccccc2N=C2C1CCN2C (stereo not given)"
outcome_measure = "GI50"
value_measured = "> 100 µM (inactive)"

[[record]]
compound = "O=C1c2ccc3c4ccc5c6c(ccc(c7ccc(c2c37)C(=O)N1CCN1CCCCC1)c64)C(=O)N(CCN1CCCCC1)C5=O"
outcome_measure = "GI50"
value_measured = "> 100 µM (inactive)"

[[record]]
compound = "O=C(NC(Cc1c[nH]cn1)C(=O)N1CCCC1)C1CCCC1 (stereo not given)"
outcome_measure = "GI50"
value_measured = "37.9 µM (inactive)"


Below is a list of compounds. For each, state its recorded GI50.
1. Cn1c2ccccc2c(=O)c2c(O)cc3c(c21)C=CC(C)(C)O3
2. COc1cccc2c1C(CO)N1C(C#N)C3CC(C(=O)O)C(C1C2)N3C (stereo not given)

1. > 13.5 µM (inactive)
2. 2.77 µM (inactive)
